Catalogue of pIC50 readings, one per entry.
Molecular target: GST-tagged KRAS-G12D (2-169) (Homo sapiens, UniProt P01116, G12D)
Sequence (P01116 2-169 isoform P01116-2 G12D): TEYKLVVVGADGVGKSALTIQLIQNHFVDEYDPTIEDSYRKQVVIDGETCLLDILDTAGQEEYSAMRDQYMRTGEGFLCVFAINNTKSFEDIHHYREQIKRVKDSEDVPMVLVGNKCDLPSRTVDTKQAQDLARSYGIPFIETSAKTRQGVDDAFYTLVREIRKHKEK
Assay: Nucleotide exchange assay (NEA), SOS-mediated, HTRF, KRAS G12D
Assay type: biochemical
Settings: Table 4; IC50 extracted at 30 min; 20 nM SOScat; read-out: NEA G12D IC50
pIC50: −log10 of the molar value.
Recorded metric: pIC50

[[record]]
compound = "CCN(c1nc(OC[C@@]23CCCN2C[C@H](F)C3)nc(N2CC3(C2)c2c(sc(N)c2C#N)CN3C)n1)[C@H](C)c1cccnc1N"
endpoint_result = "> 8.00"

[[record]]
compound = "N#Cc1c(N)sc2c1C1(CN(c3nc(OC[C@@]45CCCN4C[C@H](F)C5)nc(N4CCC5(CC4)COC5=O)n3)C1)SC2"
endpoint_result = "6.00 to 7.00"

[[record]]
compound = "CC(c1cccnc1C(F)F)N(C)c1nc(OC[C@@]23CCCN2C[C@H](F)C3)nc(N2CC3(C2)SCc2sc(N)c(C#N)c23)n1 (stereo partly shown)"
endpoint_result = "4.70 to 6.00"

[[record]]
compound = "CC(c1nccnc1N)N(CCO)c1nc(OC[C@@]23CCCN2C[C@H](F)C3)nc(N2CC3(CCc4sc(N)c(C#N)c43)C2)n1 (stereo partly shown)"
endpoint_result = "> 8.00"

[[record]]
compound = "CCN(c1nc(OCC23CCC(COC2)N3)nc(N2CC3(C2)SCc2sc(N)c(C#N)c23)n1)[C@H](C)c1cccnc1N (stereo partly shown)"
endpoint_result = "7.00 to 8.00"

[[record]]
compound = "N#Cc1c(N)sc2c1C1(CN(c3nc(OC[C@@]45CCCN4C[C@H](F)C5)nc(N4CC5CC(=O)CC(C4)N5)n3)C1)SC2"
endpoint_result = "7.00 to 8.00"

[[record]]
compound = "C[C@H](c1cccnc1N)N(CC(F)F)c1nc(OC[C@@H]2CCCN2C)nc(N2CC3(C2)SCc2sc(N)c(C#N)c23)n1"
endpoint_result = "> 8.00"

[[record]]
compound = "CC(CO)N(c1nc(OC[C@@]23CCCN2C[C@H](F)C3)nc(N2CC3(C2)SCc2sc(N)c(C#N)c23)n1)C1(C#N)CC1 (stereo partly shown)"
endpoint_result = "> 8.00"

[[record]]
compound = "N#CNC1CCCN(c2nc(OC[C@@]34CCCN3C[C@H](F)C4)nc(N3CC4(CCc5sc(N)c(C#N)c54)C3)n2)C1 (stereo partly shown)"
endpoint_result = "7.00 to 8.00"

[[record]]
compound = "C[C@@]1(O)CCCN(c2nc(OC[C@@]34CCCN3C[C@H](F)C4)nc(N3CC4(CCc5sc(N)c(C#N)c54)C3)n2)C1"
endpoint_result = "> 8.00"

[[record]]
compound = "N#Cc1c(N)sc2c1C1(CN(c3nc(OC[C@@]45CCCN4C[C@H](F)C5)nc(N4[C@H]5CC[C@]4(CO)COC5)n3)C1)SC2"
endpoint_result = "7.00 to 8.00"

[[record]]
compound = "N#Cc1c(N)sc2c1C1(CC2)CN(c2nc(N[C@@H]3COC[C@@H]3O)nc(OC[C@@]34CCCN3C[C@H](F)C4)n2)C1 (racemic)"
endpoint_result = "4.70 to 6.00"

[[record]]
compound = "C[C@]1(O)C[C@H](O)CN(c2nc(OC[C@@]34CCCN3C[C@H](F)C4)nc(N3CC4(CCc5sc(N)c(C#N)c54)C3)n2)C1"
endpoint_result = "4.70 to 6.00"

[[record]]
compound = "CC(c1cccnc1N)N(C)c1nc(OCC2(CN3CCOCC3)CC2)nc(N2CC3(C2)SCc2sc(N)c(C#N)c23)n1 (stereo not shown)"
endpoint_result = "7.00 to 8.00"

[[record]]
compound = "C[C@@]1(CO)C[C@@H](O)CN1c1nc(OC[C@@]23CCCN2C[C@H](F)C3)nc(N2CC3(CCc4sc(N)c(C#N)c43)C2)n1"
endpoint_result = "6.00 to 7.00"

[[record]]
compound = "CN(Cc1cc(C(N)=O)nn1C)c1nc(OC[C@@]23CCCN2C[C@H](F)C3)nc(N2CC3(CCc4sc(N)c(C#N)c43)C2)n1"
endpoint_result = "6.00 to 7.00"

[[record]]
compound = "CN(Cc1c(O)ccnc1N)c1nc(OC[C@@]23CCCN2C[C@H](F)C3)nc(N2CC3(C2)SCc2sc(N)c(C#N)c23)n1"
endpoint_result = "7.00 to 8.00"

[[record]]
compound = "C[C@H](c1cccnc1N)N(C)c1nc(OC[C@@]23CCCN2C[C@H](F)C3)nc(N2CC3(CCc4cnn(C)c43)C2)n1"
endpoint_result = "4.70 to 6.00"

[[record]]
compound = "N#Cc1c(N)sc2c1C1(CC2)CN(c2nc(OC[C@@]34CCCN3C[C@H](F)C4)nc(N3CC[C@@H](O)[C@@H](O)C3)n2)C1 (racemic)"
endpoint_result = "7.00 to 8.00"

